biological target: syn-pre-pro-Δ89-CB1R (Homo sapiens, UniProt P21554); construct: expressed in transfected cells; host or cells: Saccharomyces cerevisiae BY4741-derived ZsGreen reporter strain (Gpa1-Gαi3 chimera; also sterol-modified strains ST01–ST15); assay: cell-based; type: cell-based; conditions: FUBINACA and PINACA compounds, 8 h, n = 3 (Figure 3); read-out: EC50, dose response
Sequence (P21554 90-472 limits assumed, stated change not applied): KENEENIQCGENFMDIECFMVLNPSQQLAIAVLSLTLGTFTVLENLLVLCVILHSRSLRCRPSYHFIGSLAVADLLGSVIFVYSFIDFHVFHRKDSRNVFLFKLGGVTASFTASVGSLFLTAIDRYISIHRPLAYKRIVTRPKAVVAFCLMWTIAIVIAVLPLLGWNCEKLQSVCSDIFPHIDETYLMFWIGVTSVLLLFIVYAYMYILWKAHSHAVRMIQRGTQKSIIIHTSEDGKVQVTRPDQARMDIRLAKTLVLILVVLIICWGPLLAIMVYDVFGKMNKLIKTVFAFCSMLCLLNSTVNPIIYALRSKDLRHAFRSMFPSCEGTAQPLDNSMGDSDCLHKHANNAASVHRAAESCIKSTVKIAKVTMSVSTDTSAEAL
Known pEC50 of a selection of compounds
// pEC50 is dimensionless: -log10 of concentration (M)

// worked examples, pEC50 included
| COMPOUND | pEC50 |
| --- | --- |
| CCC(C(N)=O)N(C)C(=O)c1nn(Cc2ccc(F)cc2)c2ccccc12 (single isomer, unassigned) [AB-FUBINACA isomer 5] | 7.80 |
| CCCCCn1nc(C(=O)NC(C(N)=O)C(C)(C)C)c2ccccc21 (centres unmarked) | 10.05 |
| CCCCCn1nc(C(=O)NC(C(N)=O)C(C)C)c2ccccc21 (centres unmarked) | 8.92 |
| CCC(C)(NC(=O)c1nn(Cc2ccc(F)cc2)c2ccccc12)C(N)=O (single isomer, unassigned) [AB-FUBINACA isomer 2] | 9.64 |

Next item in the queue.
Query: Value lookup for pEC50; key = CCCC(NC(=O)c1nn(Cc2ccc(F)cc2)c2ccccc12)C(N)=O (single isomer, unassigned) [AB-FUBINACA isomer 1]
Result: 11.00
